test system: CYP1A2; test: Enzyme induction assay, CYP1A2 activity in primary human hepatocytes; assay type: in vitro ADME; conditions: plated cryopreserved primary human hepatocytes, donor HU8373, probe phenacetin (100 µM), O-deethylation
PARAMETER_MEASURED: fold induction at 72 h, 303 nM

{"COMPOUND": "COc1ccc2[nH]c([S+]([O-])Cc3ncc(C)c(OC)c3C)nc2c1 (stereo not shown)", "PARAMETER_MEASURED": "fold induction at 72 h, 303 nM", "EXPERIMENTAL_RESULT": 32.7}

###

biological target: CYP2C19 (Homo sapiens); assay: Enzyme inhibition assay, CYP2C19
Sequence (P33261 whole entry): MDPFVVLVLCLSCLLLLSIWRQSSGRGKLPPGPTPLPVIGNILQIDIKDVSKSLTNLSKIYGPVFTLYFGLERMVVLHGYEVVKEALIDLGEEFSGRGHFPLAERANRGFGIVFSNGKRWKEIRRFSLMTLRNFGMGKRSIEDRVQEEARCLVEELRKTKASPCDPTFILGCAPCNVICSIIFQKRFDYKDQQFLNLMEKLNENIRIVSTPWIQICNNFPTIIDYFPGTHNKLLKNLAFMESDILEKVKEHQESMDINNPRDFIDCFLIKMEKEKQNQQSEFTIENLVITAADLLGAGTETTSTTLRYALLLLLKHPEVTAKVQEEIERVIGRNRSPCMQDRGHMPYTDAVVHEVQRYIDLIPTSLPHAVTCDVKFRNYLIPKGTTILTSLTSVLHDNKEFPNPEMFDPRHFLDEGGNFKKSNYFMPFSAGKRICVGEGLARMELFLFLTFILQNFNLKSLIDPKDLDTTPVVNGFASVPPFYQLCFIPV
pIC50: −log10 of the molar value.

{"COMPOUND": "Cc1cc(C)c(Nc2ccnc(Nc3ccc(C#N)cc3)n2)c(C)c1 [DPV, Dapivirine]", "ASSAY_SYSTEM": "CYP2C19 (Homo sapiens)", "pIC50": "< 4.52"}
